- Tested on: SNB-75 CNS
- Assay Text: NCI tumour cell line growth inhibition, 48 h
Experimental Readout: TGI

• COc1nn(Cc2ccccc2F)c2ccc([N+](=O)[O-])cc12 = > 100 µM
• COC1(OC)N=C(N)C2(C#N)C(C)CC(=O)N(N(C)C)C12C#N (stereo not drawn) = > 100 µM

Shifting focus to the compound that follows.
## Input Please supply the value of reported TGI for the item N=c1c2c3n(c4c(=O)n(-c5ccccc5)c(=S)n(c(=O)n1-c1ccccc1)c24)CCCCC3
## Output > 100 µM

----------
Listing: TGI of selected compounds
- Test system: DU-145 prostate
- Assay Text: NCI tumour cell line growth inhibition, 48 h

- CCCCCCCCCCCCCCCCCCNc1ccn(C2OC(COP(=O)(O)O)C(O)C2O)c(=O)n1 (stereo not given): > 100 µM

## Input Please supply the value of reported TGI for the item Cc1ccc(S(=O)(=O)Oc2ccc3c4c(c(=O)oc3c2)CCCCC4)cc1
## Output > 100 µM

## Input Please supply the value of reported TGI for the item COc1ccc(CNc2nc(NCc3ccc(OC)cc3)nc(Nc3ccccc3)n2)cc1
## Output > 100 µM

## Input Please supply the value of reported TGI for the item COc1ccc2cc(C(=O)/C=C/c3cccc(Cl)c3Cl)ccc2c1
## Output > 55.9 µM

## Input Please supply the value of reported TGI for the item CO/N=C1\CCC2(O)C3Cc4ccc(O)c5c4C2(CCN3CC2CC2)[C@H]1O5 (stereo not given in full)
## Output > 100 µM

Value source: PubChem BioAssay (NCI)
